- experimentalSystem: full-length human PKCι (Homo sapiens)
- Construct: Recombinant, full-length human PKCι expressed in Sf21 insect cells is also commercially available; purchased; host or cells: Sf21 insect cells
- Sequence (P41743 1-596): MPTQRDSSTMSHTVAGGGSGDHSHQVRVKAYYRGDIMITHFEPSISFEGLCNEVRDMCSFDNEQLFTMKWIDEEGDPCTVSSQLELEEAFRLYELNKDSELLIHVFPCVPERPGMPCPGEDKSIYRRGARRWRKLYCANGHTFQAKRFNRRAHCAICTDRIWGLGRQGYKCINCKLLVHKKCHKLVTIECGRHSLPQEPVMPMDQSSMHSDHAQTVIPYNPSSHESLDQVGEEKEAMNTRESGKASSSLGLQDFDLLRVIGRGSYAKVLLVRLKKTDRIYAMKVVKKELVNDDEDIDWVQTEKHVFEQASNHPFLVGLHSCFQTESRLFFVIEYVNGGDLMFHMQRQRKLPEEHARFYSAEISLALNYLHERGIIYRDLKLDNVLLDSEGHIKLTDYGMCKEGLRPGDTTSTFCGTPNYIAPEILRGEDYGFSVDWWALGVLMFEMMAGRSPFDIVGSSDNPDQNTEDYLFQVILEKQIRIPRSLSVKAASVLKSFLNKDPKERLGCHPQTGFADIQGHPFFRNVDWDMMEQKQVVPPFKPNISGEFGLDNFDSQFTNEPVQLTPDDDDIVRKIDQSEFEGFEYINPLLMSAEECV
- testSummary: PKCι IC50 IMAP assay, full-length PKCι at 150 μM ATP
- Assay type: biochemical
- conditionParameters: read-out: IC50 in IMAP assay against full length PKCi at 150 μM ATP
testReadout: IC50

Solved cases (3 shown):
[ask] # return recorded IC50 for entry N[C@H](CNc1nc(-c2ccncc2F)nc2cnccc12)Cc1ccccc1
[reply] 100 to 1000 nM

[ask] Return reported IC50. Input compound: CC(=O)Nc1cc(-c2nc(N3CCN[C@@H](COCc4ccccc4)C3)c3c(C4CC4)cncc3n2)ccn1
[reply] < 100 nM

[ask] Return IC50 (reported value) for this compound: Cc1ccc(C(F)(F)F)cc1Nc1cc(-c2nc(N3CCNCC3)c3c(C4CC4)cncc3n2)ccn1
[reply] 100 to 1000 nM

Here is another compound to look at.
[ask] Supply recorded IC50 for Fc1ccc(OC(F)(F)F)cc1Nc1cc(-c2nc(N3CCNCC3)c3c(C4CC4)cncc3n2)ccn1 here.
[reply] 100 to 1000 nM

---

- experimentalSystem: full-length human PKCι (Homo sapiens, UniProt P41743)
- Construct: Recombinant, full-length human PKCι expressed in Sf21 insect cells is also commercially available
- testSummary: PKCι IC50 IMAP assay, full-length PKCι at 150 μM ATP
- conditionParameters: read-out: IC50 in IMAP assay against full length PKCi at 150 μM ATP
pIC50: −log10 of the molar value.
Entries and their pIC50 values follow.

[ask] Indicate the recorded pIC50 value for this molecule: c1cc(-c2nc(N3CCNCC3)c3c(C4CC4)cncc3n2)cc(NC23CC4CC(CC(C4)C2)C3)n1
[reply] > 7.00

Would you kindly look at the next entry?
[ask] Give pIC50 for COc1cncc2nc(-c3ccnc(Nc4ccc(F)cc4F)c3)nc(N3CCNCC3)c12
[reply] > 7.00

---

A collection of compounds and their measured melting point

Examples with their reported melting point follow.
[ask] Return the recorded melting point value; entry: c1cncc(Nc2cc(-c3nc(N4CCNCC4)c4c(C5CC5)cncc4n3)ccn2)c1
[reply] 226 to 228 °C

[ask] Specify melting point for COc1cccc(Nc2cc(-c3nc(N4CCNCC4)c4c(OC)cncc4n3)ccn2)n1 and stop.
[reply] 189 to 191 °C

[ask] State its melting point: Cc1cc(N2CCOCC2)ccc1Nc1cc(-c2nc(N3CCNCC3)c3c(C4CC4)cncc3n2)ccn1
[reply] 214 to 220 °C

Continuing:
[ask] Quote melting point reported for c1cc(-c2nc(N3CCNCC3)c3c(C4CC4)cncc3n2)cc(Nc2ccc(N3CCOCC3)nc2)n1 please.
[reply] 217 to 219 °C

[ask] Please look at this compound and report its melting point: N#Cc1ccc(CC(=O)Nc2cc(-c3nc(N4CCNCC4)c4c(C5CC5)cncc4n3)ccn2)cc1
[reply] 200 to 203 °C

[ask] Answer with the recorded melting point for the compound listed here: c1ccc(Nc2cc(-c3nc(N4CCNCC4)c4c(C5CC5)cncc4n3)ccn2)cc1
[reply] 221 to 226 °C

---

- experimentalSystem: full-length human PKCι (Homo sapiens, UniProt P41743)
- Construct: Recombinant, full-length human PKCι expressed in Sf21 insect cells is also commercially available
- testSummary: PKCι IC50 IMAP assay, full-length PKCι at 150 μM ATP
- conditionParameters: read-out: IC50 in IMAP assay against full length PKCi at 150 μM ATP
The following compounds are listed with their measured IC50 values.

[ask] Supply recorded IC50 for OC1(C2CN(c3nc(-c4ccnc(Cl)c4)nc4cncc(C5CC5)c34)CCN2)CC1 (centres unmarked) here.
[reply] 100 to 1000 nM

[ask] Name the recorded IC50 of the compound listed here: c1cc(-c2nc(N3CCNCC3)c3c(C4CC4)cncc3n2)c2cc([C@H]3C[C@H]4CC[C@@H]3C4)[nH]c2n1 (racemic)
[reply] < 100 nM

[ask] Please report IC50 for the following compound: Fc1cc(F)c(Nc2cc(-c3nc(N4CCNCC4)c4c(C5CC5)cncc4n3)ccn2)c(F)c1
[reply] < 100 nM

[ask] Specify reported IC50 for the compound shown: COc1ccc(C)c(Nc2cc(-c3nc(N4CCNCC4)c4c(C5CC5)cncc4n3)ccn2)c1
[reply] < 100 nM

Shift focus to the following entry.
[ask] Assign IC50 to the following record: Fc1ccc(C2CC2)cc1Nc1cc(-c2nc(N3CCNCC3)c3c(C4CC4)cncc3n2)ccn1
[reply] < 100 nM

---

- experimentalSystem: full-length human PKCι (Homo sapiens)
- Construct: Recombinant, full-length human PKCι expressed in Sf21 insect cells is also commercially available
- testSummary: PKCι IC50 IMAP assay, full-length PKCι at 150 μM ATP
- conditionParameters: read-out: IC50 in IMAP assay against full length PKCi at 150 μM ATP
pIC50: −log10 of the molar value.
testReadout: pIC50

The following molecules have reported results that may help.
[ask] Tell me pIC50 reported for Cc1cc(N2CCOCC2)ccc1Nc1cc(-c2nc(N3CCNCC3)c3c(C4CC4)cncc3n2)ccn1 [Example 474]
[reply] > 7.00

[ask] Please look at this molecule and report its pIC50: Fc1cccc(F)c1Nc1cc(-c2nc(C3=CCNCC3)c3c(C4CC4)cncc3n2)ccn1 [Example 789]
[reply] 6.00 to 7.00

[ask] Please look at this molecule and report its pIC50: COc1cncc2nc(-c3ccnc(NC(=O)Cc4ccc(N)cc4)c3)nc(N[C@@H]3CCNC3)c12 [Example 327]
[reply] > 7.00

[ask] Respond only with pIC50 recorded for Fc1ccccc1Nc1cc(-c2nc(N3CCN[C@@H](C4CC4)C3)c3c(C4CC4)cncc3n2)ccn1 [Example 276]
[reply] > 7.00

[ask] Note pIC50 for the molecule shown: FC(F)(F)c1cc2c(-c3nc(NC4CCNC4)c4c(C5CC5)cncc4n3)ccnc2[nH]1 (stereo in doubt) [Example 2069]
[reply] > 7.00

// switching to the query molecule
[ask] Specify measured pIC50 for COc1cncc2nc(-c3ccnc(Nc4cncc(Cl)c4)c3)nc(N3CCNCC3)c12 [Example 417] .
[reply] 6.00 to 7.00

---

Listed below: IC50 values for each entry.
- experimentalSystem: full-length human PKCι (Homo sapiens, UniProt P41743)
- Construct: Recombinant, full-length human PKCι expressed in Sf21 insect cells is also commercially available
- testSummary: PKCι IC50 IMAP assay, full-length PKCι at 150 μM ATP
- conditionParameters: read-out: IC50 in IMAP assay against full length PKCi at 150 μM ATP

[ask] Provide measured IC50 value, entry: Cn1ccc(Nc2cc(-c3nc(N4CCNCC4)c4c(C5CC5)cncc4n3)ccn2)n1 [Example 600]
[reply] 1000 to 10000 nM

[ask] Return IC50 for the following compound: COc1cncc2nc(-c3ccnc(Nc4cc(Cl)ccn4)c3)nc(N3CCNCC3)c12 [Example 365]
[reply] < 100 nM

[ask] Output IC50 of CCc1cncc2nc(-c3ccncc3)nc(N3CCNCC3)c12 [Example 136]
[reply] < 100 nM

Further cases:
[ask] Query IC50 for COc1ccc(-c2nccc3c(NC[C@@H](N)Cc4ccccc4)nc(-c4ccncc4)nc23)cc1 [Example 95]
[reply] 100 to 1000 nM

---

Each entry below lists one item and its recorded pIC50 value.
- experimentalSystem: full-length human PKCι (Homo sapiens)
- Construct: Recombinant, full-length human PKCι expressed in Sf21 insect cells is also commercially available; purchased; host or cells: Sf21 insect cells
- testSummary: PKCι IC50 IMAP assay, full-length PKCι at 150 μM ATP
- Type: biochemical
- conditionParameters: read-out: IC50 in IMAP assay against full length PKCi at 150 μM ATP
pIC50: −log10 of the molar value.

[ask] Supply recorded pIC50 for C[C@H](N)CNc1nc(-c2ccncc2)nc2cnccc12 here.
[reply] 4.40 to 5.00

[ask] Annotate the molecule N[C@H](CNc1nc(-c2ccncc2)nc2c(-c3cccc4ccoc34)nccc12)Cc1ccccc1 with its measured pIC50.
[reply] 6.00 to 7.00

[ask] Retrieve pIC50 measured for Cc1nccc2c(N3CCNCC3)nc(-c3ccncc3)nc12 and print it.
[reply] 4.40 to 5.00

[ask] Please look at this molecule and report its pIC50: COc1cncc2nc(-c3ccncc3)nc(N3CCN(CC#N)CC3)c12
[reply] 4.40 to 5.00

Let us move to another entry and its pIC50.
[ask] Please look at this molecule and report its pIC50: COc1cncc2nc(-c3ccnc(Nc4ccccc4)c3)nc(N3CCN[C@@H](CCO)C3)c12
[reply] 6.00 to 7.00
